Measured values drawn from PubChem BioAssay (NCI) for this set.

In this section, each of the compounds is paired with its reported growth.
# System: HS 578T breast
# Method Summary: NCI-60 one-dose screen, 48 h (100 = growth as untreated, 0 = no growth, -100 = all killed)
# Experimental Context: 10 µM unless noted
The panel holds about 83,000 compounds, 20% with a hit somewhere; the sample as a whole holds those more often.

Chemical Smiles: COC[C@]12CCC(C)(C)C[C@H]1C1=CC[C@@H]3[C@@]4(C)CCCNC(C)(C)[C@@H]4CC[C@@]3(C)[C@]1(C)CC2
Units Of Measure: %
growth: -44.6
--
Chemical Smiles: CCOC(=O)c1c(NC(=O)c2ccccc2C(F)(F)F)sc2c1CCC(=O)C2
Units Of Measure: %
growth: 36.3
--
Chemical Smiles: c1cn2c(ccc3nc(-c4cn[nH]c4)c4c(c32)CCCC4)n1
Units Of Measure: %
growth: 31.5
--
Chemical Smiles: CC1=N[C@@H]2CN(C(=O)OC(C)(C)C)C[C@@H]2n2c1cc1ccccc1c2=O
Units Of Measure: %
growth: 101
--
Chemical Smiles: NC(N)=Nc1ccc(Oc2cccc(Oc3ccc(Cl)c(C(F)(F)F)c3)c2)cn1
Units Of Measure: %
growth: 79.8
--
Chemical Smiles: Clc1nc2ccccc2nc1-c1nnc(C2CCCCC2)o1
Units Of Measure: %
growth: 92.8
--
Chemical Smiles: CC(C)c1ccc(NCc2cn(-c3ccc(C(=O)O)cc3)nc2-c2cc(C(F)(F)F)cc(C(F)(F)F)c2)cc1
Units Of Measure: %
growth: 68
--
Chemical Smiles: COCCNc1ccc2ncc(C#Cc3cncc(C(=O)Nc4ccc(CN5CCN(C)CC5)c(C(F)(F)F)c4)c3)n2n1
Units Of Measure: %
growth: -33.9
--
Chemical Smiles: N#Cc1cccc(CN2CCC3=C(C2)C(=O)N(Cc2ccc(Cl)cc2)C2=NCCCN23)c1
Units Of Measure: %
growth: 50.5
--
Chemical Smiles: Cc1cc(S(=O)(=O)N(C)C)cc(NCC(=O)NC(=O)NCC(C)C)c1C
Units Of Measure: %
growth: 103

====

# Test system: SK-MEL-2 melanoma
# Method Summary: NCI-60 one-dose screen, 48 h (100 = growth as untreated, 0 = no growth, -100 = all killed)
# Experimental Context: 10 µM unless noted
The panel holds about 83,000 compounds, 20% with a hit somewhere; the sample as a whole holds those more often.
Param threshold (40%) applies to growth; output True when value >= threshold, False when value < threshold.

Compound: COc1c(N2CC3CCCNC3C2)c(F)cc2c(=O)c(C(=O)N/N=C/c3ccccc3)cn(C3CC3)c12 (centres undefined)
Experimental System: SK-MEL-2 melanoma
Assigned Class: True
--
Compound: CCCn1cnc2c(c1=N)C(c1ccc(OC)cc1)c1sc3c(C)cccc3c1O2 (centres undefined)
Experimental System: SK-MEL-2 melanoma
Assigned Class: False
--
Compound: Cc1occc1-c1nc2s/c(=C/c3ccc(-c4cc(C(F)(F)F)ccc4Cl)o3)c(=O)n2n1
Experimental System: SK-MEL-2 melanoma
Assigned Class: True
--
Compound: COc1ccc2[nH]cc(-c3csc4nc(-c5ccccc5)cn34)c2c1
Experimental System: SK-MEL-2 melanoma
Assigned Class: False
--
Compound: COc1ccc2c(c1)c(CC(=O)[Se]CCC#N)c(C)n2C(=O)c1ccc(Cl)cc1
Experimental System: SK-MEL-2 melanoma
Assigned Class: False
--
Compound: NS(=O)(=O)c1ccc(Nc2nc(N/N=C/c3ccccn3)nc(Nc3ccccc3)n2)cc1
Experimental System: SK-MEL-2 melanoma
Assigned Class: False
--
Compound: COc1ccc(/C=C/C(=O)c2cccc(NC(=O)CSc3nc4ccccc4c(=O)n3-c3ccccc3)c2)cc1OC
Experimental System: SK-MEL-2 melanoma
Assigned Class: True
--
Compound: Cn1ccnc1C(=O)/C=C/c1ccc(CNC(=O)c2ccc(S(F)(F)(F)(F)F)cc2)cc1
Experimental System: SK-MEL-2 melanoma
Assigned Class: True
--
Compound: Cn1cc(-c2nc(N)nnc2-c2c[nH]c3ccccc23)c2cc(Br)ccc21
Experimental System: SK-MEL-2 melanoma
Assigned Class: False

====

# Test system: MCF7 breast
# Method Summary: NCI-60 one-dose screen, 48 h
# Experimental Context: 10 µM unless noted
Compounds without any hit were thinned out: in the full panel of roughly 83,000, 20% have a hit. Active and inactive are the calls of the source. The calls were made as follows: active = growth percent below 10; inactive = the rest.
Labels: true (1) for active, false (0) for inactive

Molecule: COc1ccc(C(=O)Nc2ncc(Cc3ccccc3Cl)s2)cc1
Experimental System: MCF7 breast
Assigned Class: false (0)
//
Molecule: Nc1nc(Nc2ccccc2SSc2ccccc2Nc2nc(N)nc(-c3ccccc3)n2)nc(-c2ccccc2)n1
Experimental System: MCF7 breast
Assigned Class: false (0)
//
Molecule: Cn1ccnc1C(=O)/C=C/C=C/c1ccc(C(=O)Nc2ccc(F)cc2)cc1
Experimental System: MCF7 breast
Assigned Class: false (0)
//
Molecule: COc1c(N2CC3CCCNC3C2)c(F)cc2c(=O)c(C(=O)N/N=C/c3ccc(N(C)C)cc3)cn(C3CC3)c12 (stereo not drawn)
Experimental System: MCF7 breast
Assigned Class: false (0)
//
Molecule: CCO/C=N/C1=C(C#N)C(c2ccc(Cl)cc2)c2sc3c(C)cccc3c2O1 (stereo not drawn)
Experimental System: MCF7 breast
Assigned Class: false (0)
//
Molecule: CC(=O)c1ccc(Nc2nc(SCC(C)C)nc(-c3ccc(F)cc3)c2C#N)cc1
Experimental System: MCF7 breast
Assigned Class: false (0)
//
Molecule: O=S(=O)(NCCNc1nccc(-n2cnc3ccccc32)n1)c1ccc(C(F)(F)F)cc1
Experimental System: MCF7 breast
Assigned Class: false (0)
//
Molecule: COc1cc(/C=C2\C(=O)Nc3cc(Cl)ccc32)ccc1OCc1ccc(F)cc1
Experimental System: MCF7 breast
Assigned Class: false (0)
//
Molecule: COC(=O)C[Se]C(=O)Cc1c(C)n(C(=O)c2ccc(Cl)cc2)c2ccc(OC)cc12
Experimental System: MCF7 breast
Assigned Class: false (0)
//
Molecule: O=[N+]([O-])c1cc(/C=N/Nc2nc(N/N=C/c3ccc(Cl)c([N+](=O)[O-])c3)nc(N3CCCCC3)n2)ccc1Cl
Experimental System: MCF7 breast
Assigned Class: true (1)
//
Molecule: COc1ccc(-n2c(/C=C3\C(=O)Nc4ccccc43)ccc2CO)cc1
Experimental System: MCF7 breast
Assigned Class: false (0)
//
Molecule: C=CC(=O)N1CCC=C(c2cc3c(N[C@H](C)c4ccccc4)ncnc3[nH]2)C1
Experimental System: MCF7 breast
Assigned Class: false (0)
//
Molecule: COc1ccc(NC(=O)CSc2nnc(-c3ccc4nc(-c5ccccc5)[nH]c4c3)o2)cc1
Experimental System: MCF7 breast
Assigned Class: false (0)

====

# System: SK-MEL-28 melanoma
# Method Summary: NCI-60 one-dose screen, 48 h
# Experimental Context: 10 µM unless noted
About 83,000 compounds went through this panel and 20% of them were active in at least one assay; those are over-represented in the sample as a whole. The source made the active and inactive calls. Rule for the calls: active = growth percent below 10; inactive = the rest.
Labels: 1 (yes) = active, 0 (no) = inactive

Molecule: Nc1nc(Nc2ccccc2SSc2ccccc2Nc2nc(N)nc(-c3ccccc3)n2)nc(-c2ccccc2)n1
Experimental System: SK-MEL-28 melanoma
Assigned Class: 0 (no)
//
Molecule: CCOC(=O)C(=O)CC(=O)N1C(=S)NC(=O)C1CC(C)C (stereo not given)
Experimental System: SK-MEL-28 melanoma
Assigned Class: 0 (no)
//
Molecule: O=C(CSc1nc2ccccc2c(=O)n1-c1ccc(Cl)cc1)N/N=C/c1ccc(N2CCCCC2)cc1
Experimental System: SK-MEL-28 melanoma
Assigned Class: 0 (no)
//
Molecule: CN1CCN(c2nc(-c3csc(-c4ccccc4)n3)cc3ccccc23)CC1
Experimental System: SK-MEL-28 melanoma
Assigned Class: 1 (yes)
//
Molecule: CN1CCN(c2ccc(/C=N/Nc3nc4ccccc4c(=O)n3-c3ccccc3)cc2)CC1
Experimental System: SK-MEL-28 melanoma
Assigned Class: 0 (no)
//
Molecule: Cn1ccnc1C(=O)/C=C/c1ccc(CNC(=O)c2ccc(Cl)cc2)cc1
Experimental System: SK-MEL-28 melanoma
Assigned Class: 0 (no)
//
Molecule: CC(=O)N(C)C1CCc2c(sc(NC(=O)c3ccc(C(C)(C)C)cc3)c2C(N)=O)C1 (stereo not given)
Experimental System: SK-MEL-28 melanoma
Assigned Class: 0 (no)
//
Molecule: O=C(CNc1nc(-c2cccc([N+](=O)[O-])c2)cs1)Nc1cccc([N+](=O)[O-])c1
Experimental System: SK-MEL-28 melanoma
Assigned Class: 1 (yes)
//
Molecule: CCN(CC)c1ccc(NC2=C(Cl)C(=O)c3nc(C)ccc3C2=O)cc1
Experimental System: SK-MEL-28 melanoma
Assigned Class: 0 (no)
//
Molecule: COc1ccc(-n2c(SCc3n[nH]c(=S)o3)nc3ccc(Cl)cc3c2=O)cc1
Experimental System: SK-MEL-28 melanoma
Assigned Class: 0 (no)
